FYI, the data here is from ChEMBL document CHEMBL2029237.

target_or_test_system: Melanin-concentrating hormone receptor 1 (Homo sapiens, UniProt Q99705)
Sequence (Q99705 whole entry): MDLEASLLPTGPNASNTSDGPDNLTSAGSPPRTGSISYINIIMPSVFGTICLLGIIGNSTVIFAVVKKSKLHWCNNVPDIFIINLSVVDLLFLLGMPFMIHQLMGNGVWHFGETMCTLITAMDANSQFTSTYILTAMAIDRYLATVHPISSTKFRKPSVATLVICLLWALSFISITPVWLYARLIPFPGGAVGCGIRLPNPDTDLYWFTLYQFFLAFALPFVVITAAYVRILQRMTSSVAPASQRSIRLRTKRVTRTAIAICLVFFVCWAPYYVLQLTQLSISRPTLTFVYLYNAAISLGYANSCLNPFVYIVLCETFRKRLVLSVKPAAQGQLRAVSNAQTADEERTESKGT
protocol_text: Antagonist activity at human MCHR1 expressed in CHO cells assessed as inhibition of MCH-induced [3H]arachidonic acid release […] by liquid scintillation counting
Type: functional, cell-based
applied_conditions: in the assay text read “45 mins” for “16 hrs”
Could you please mark condition met for values of IC50 below 9 nM and condition not met for values at or above it?

Sample answers from the record:
1. O=C(Nc1ccc2cc(CN3CCCC3)cnc2c1)c1ccc(-c2ccc(Cl)cc2)nc1    condition not met
2. O=C(Nc1cc2ncc(CN3CCCC3)cc2cc1Cl)c1ccc(-c2ccc(F)cc2)cc1    condition not met

Prompt line: Lab note: IC50 threshold 9 nM. Does this molecule come in strictly under it? `O=C(Nc1ccc2cc(CN3CCCC3)cnc2c1F)c1ccc(-c2ccc(F)cc2)cc1`
Response line: condition met

Prompt line: Find out if reported IC50 for `O=C(Nc1ccc2cc(CN3CCCC3)cnc2c1)c1ccc(-c2ccc(Cl)cc2)cc1` is less than 9 nM
Response line: condition met
